Value source: PubChem BioAssay (Tox21)

- method.description: qHTS assay to identify small molecule agonists of H2AX - cell viability counter screen (AID 1224847); also: nearly all actives have a fitted effect of over 30% in size
- condition.info: CHO-K1 viability, CellTiter-Glo luminescence, 3 h; series mostly up to 154 µM
Inconclusive results are not listed. Activity calls are given as the source filed them. Calls follow the shape of the full dose curve.
Your reply should match one of these outcome classes. T (active), F (inactive)

Example results:
molecule	class
CCCCCCCCCBr	F
C[CH2][Hg][N]1C(=O)C2C(C1=O)C1(Cl)C(Cl)=C(Cl)C2(Cl)C1(Cl)Cl (stereo not given)	T
ClC1=C(Cl)[C@]2(Cl)[C@H]3[C@H]([C@H]4C=C[C@H]3C4)[C@@]1(Cl)C2(Cl)Cl	F
C[C@]12CC[C@H]3[C@@H](CCC4=CC(=O)CC[C@@]43C)[C@@H]1CC[C@@H]2O	F
C[C@@H]1O[C@@H](O[C@H]2C[C@@H](O)[C@]3(CO)[C@H]4[C@H](O)C[C@]5(C)[C@@H](C6=CC(=O)OC6)CC[C@]5(O)[C@@H]4CC[C@]3(O)C2)[C@H](O)[C@H](O)[C@H]1O	F
NNC(=O)c1ccccc1	F
CC1(C)[C@H](C(=O)O[C@H](C#N)c2cccc(Oc3ccccc3)c2)[C@@H]1/C=C(\Cl)C(F)(F)F	F
CN(CCCC(=O)c1cccnc1)N=O	F
CC(=O)O[C@H]1CC[C@@]2(C)C(=CC[C@@H]3[C@@H]2CC[C@]2(C)C(=O)CC[C@@H]32)C1	T
N#CCCC(Br)(C#N)CBr (stereo not given)	T

Dear all, I need the recorded test outcome for "CC(C)[C@H](C(=O)O[C@H](C#N)c1cccc(Oc2ccccc2)c1)c1ccc(Cl)cc1" , thank you.
F

Dear all, I need the recorded test outcome for "N#Cc1ccc(O)cc1" , thank you.
F

----------
- method.description: qHTS assay to identify small molecule agonists of the constitutive androstane receptor (CAR) signaling pathway - cell viability counter screen (AID 1224836); also: nearly all actives have a fitted effect of over 45% in size
- condition.info: HepG2-CYP2B6-hCAR viability, CellTiter-Fluor, 23 h, PK11195 added to every well; series mostly up to 92.4 µM
Inconclusive results are not listed. Active and inactive are the calls of the source. Calls follow the shape of the dose curve; as a rule, active = well fitted cell-killing curve with a large enough effect in the repeat runs; inconclusive = weak or mixed curves, or effect the other way; inactive = flat fitted curve, though single readings scatter.
Your reply should match one of these outcome classes. y for active, n for inactive

In [3]: df
Out[3]:
                                   molecule  class
0      CN(C)S(=O)(=O)N(SC(F)(Cl)Cl)c1ccccc1      y
1                          N#CCc1ccc(Cl)cc1      n
2  CCCN(CCC)c1c([N+](=O)[O-])cc(S(N)(=O)=O)cc1[N+](=O)[O-]      y
3  COc1ccc(OC)c(CC(C)N)c1 (stereo not given)      n

Dear all, I need the recorded test outcome for COC12CC[C@@]3(C[C@@H]1C(C)(O)C(C)(C)C)[C@H]1Cc4ccc(O)c5c4[C@@]3(CCN1CC1CC1)[C@H]2O5 (stereo not given in full) , thank you.
y

Dear all, I need the recorded test outcome for "COP(N)(=S)OC" , thank you.
n

----------
- method.description: A CellTox Green Cytotoxicity Assay to monitor cytotoxicity in HepG2 cells - 16 hour (AID 1224876); also: nearly all actives have a fitted effect of over 45% in size
- condition.info: CellTox Green fluorescence; series mostly up to 76.8 µM
Inconclusive results are not listed. Calls of active or inactive are those of the source. Calls follow the shape of the dose curve; as a rule, active = well fitted activation curve with a large enough effect in the repeat runs; inconclusive = weak or mixed curves; inactive = flat fitted curve, though single readings scatter.
Your reply should match one of these outcome classes. Yes (active), No (inactive)

Example results:
                                   molecule  class
0       ClC(Cl)=C(c1ccc(Cl)cc1)c1ccc(Cl)cc1     No
1  CC(=[OH+])/C=C(/C)[O-].CC(=[OH+])/C=C(\C)[O-].CC(=[OH+])/C=C(\C)[O-].[Fe]     No
2  CS(=O)(=O)c1ccc(C(=O)C2C(=O)CCCC2=O)c([N+](=O)[O-])c1    Yes
3  C[C@@H]1O[C@@H](O[C@@H]2C=C3CC[C@@H]4[C@H](CC[C@]5(C)[C@@H](c6ccc(=O)oc6)CC[C@]45O)[C@@]3(C)CC2)[C@H](O)[C@H](O)[C@H]1O     No
4            C[C@@H](Oc1ccc(Cl)cc1Cl)C(=O)O     No

Dear all, I need the recorded test outcome for "O=C(O)c1cc[c]([Hg][Cl])cc1" , thank you.
Yes

Dear all, I need the recorded test outcome for "OC(c1ccc(Cl)cc1)(c1ccc(Cl)cc1)C(Cl)(Cl)Cl" , thank you.
No

Dear all, I need the recorded test outcome for "O=C(CCCN1CCC2(CC1)C(=O)NCN2c1ccccc1)c1ccc(F)cc1" , thank you.
No

Dear all, I need the recorded test outcome for CC(C)CC(C)Nc1ccc(Nc2ccccc2)cc1 (stereo unspecified) , thank you.
No

Dear all, I need the recorded test outcome for "O=c1ssc(Cl)c1Cl" , thank you.
Yes

----------
- method.description: A CellTox Green Cytotoxicity Assay to monitor cytotoxicity in HEK293 cells - 40 hour (AID 1224871); also: nearly all actives have a fitted effect of over 45% in size; also: potency is read from the fitted curve at half-maximal effect
- condition.info: CellTox Green fluorescence; series mostly up to 76.8 µM
Inconclusive results are not listed. Activity calls are given as the source filed them. Calls come from the whole dose curve; as a rule, active = well fitted activation curve with a large enough effect in the repeat runs; inconclusive = weak or mixed curves; inactive = flat fitted curve, though single readings scatter.
endpoint: Potency

                                   compound    reported_value
0                         NC(=O)c1ccc(N)nc1          inactive
1                     O=C1C=CC(=O)c2ccccc21  3.89 µM (active)
2                                 SCc1ccco1          inactive
3                             CN(C)C1CSSSC1          inactive
4  CCC(C)c1cc(C(C)(C)C)cc(-n2nc3ccccc3n2)c1O (stereo not given)          inactive

For each of the items listed, what is its Potency?
1. S=C(SSC(=S)N1CCCCC1)N1CCCCC1
2. O=C(O)C1C2CCC(O2)C1C(=O)O (stereo not given)
3. COC(=O)N(C(=O)N1COC2(C(=O)OC)Cc3cc(Cl)ccc3C2=N1)c1ccc(OC(F)(F)F)cc1 (stereo not given)
4. O=C(CCCN1CCC2(CC1)C(=O)NCN2c1ccccc1)c1ccc(F)cc1
5. Cc1ccc(OP(=O)(Oc2ccccc2)Oc2ccccc2)cc1

["0.151 µM (active)", "inactive", "inactive", "19 µM (active)", "inactive"]

----------
- method.description: qHTS RealTime-Glo MT Cell Viability Assay in HepG2 cells - 40 hour (AID 1224870); also: nearly all actives have a fitted effect of over 50% in size
- condition.info: RealTime-Glo luminescence; series mostly up to 76.8 µM
Records with an inconclusive call do not appear. Calls of active or inactive are those of the source. The call rests on the fitted dose curve; in most records, active means well fitted cell-killing curve with a large enough effect in the repeat runs; inconclusive means weak or mixed curves, or effect the other way; inactive means flat fitted curve, though single readings scatter.
Your reply should match one of these outcome classes. yes (active), no (inactive)

Example results:
                                   compound  class
0  Cc1c(Cl)c(=O)oc2cc(OP(=O)(OCCCl)OCCCl)ccc12     no
1  CC(C)(C)c1ccc(CSc2cnn(C(C)(C)C)c(=O)c2Cl)cc1     no
2                         NC(=O)c1ccc(N)nc1     no
3  Clc1ccc(COC(Cn2ccnc2)c2ccc(Cl)cc2Cl)cc1 (centres undefined)    yes
4               CCCN(CCC)CCc1c[nH]c2ccccc12     no
5              S=C(SSC(=S)N1CCCCC1)N1CCCCC1    yes

Dear all, I need the recorded test outcome for "CCc1ccccc1C" , thank you.
no

Dear all, I need the recorded test outcome for "CN(C)[C@@H]1C(=O)C(C(N)=O)=C(O)[C@@]2(O)C(=O)C3=C(O)c4c(O)ccc(Cl)c4[C@@](C)(O)[C@H]3C[C@@H]12" , thank you.
no

Dear all, I need the recorded test outcome for "N#C/C=C/C#N" , thank you.
no

Dear all, I need the recorded test outcome for "Nc1ccc(Cl)cc1C(=O)c1ccccc1" , thank you.
no

Dear all, I need the recorded test outcome for "FC(F)(F)c1cccc(C2=CCN(CCc3ccc4ccccc4c3)CC2)c1" , thank you.
no

Dear all, I need the recorded test outcome for "Cc1cc(C)c(C2=C(OC(=O)CC(C)(C)C)C3(CCCC3)OC2=O)c(C)c1" , thank you.
no

Dear all, I need the recorded test outcome for "FC(Cl)(Cl)Cl" , thank you.
no

Dear all, I need the recorded test outcome for "ClCc1ccc(Cl)cc1Cl" , thank you.
no

----------
- method.description: Caspase-3/7 induction in HepG2 cells by small molecules, qHTS cell viability counter screen (AID 1346981); also: nearly all actives have a fitted effect of over 30% in size
- condition.info: CellTiter-Fluor fluorescence, 17 h; series mostly up to 92.4 µM
Inconclusive results are not listed. The source made the active and inactive calls. Calls come from the whole dose curve; as a rule, active = well fitted cell-killing curve with a large enough effect in the repeat runs; inconclusive = weak or mixed curves, or effect the other way; inactive = flat fitted curve, though single readings scatter.
Your reply should match one of these outcome classes. class 1 (active), class 0 (inactive)

Example results:
In [3]: df
Out[3]:
            compound    class
0                CCN  class 0
1  ClCc1ccc(Cl)cc1Cl  class 0
2        N#CCCSCCC#N  class 0
3       COP(N)(=S)OC  class 0
4  CCOC(=O)CC(=O)CCl  class 0

Dear all, I need the recorded test outcome for "Nc1c(Oc2ccccc2)cc(O)c2c1C(=O)c1ccccc1C2=O" , thank you.
class 1

Dear all, I need the recorded test outcome for "O=[N+]([O-])c1cc(C(F)(F)F)c(Cl)c([N+](=O)[O-])c1Cl" , thank you.
class 1

Dear all, I need the recorded test outcome for COc1ccc(OC)c(CC(C)N)c1 (stereo unspecified) , thank you.
class 0

Dear all, I need the recorded test outcome for "Cn1[nH]nnc1=S" , thank you.
class 0

Dear all, I need the recorded test outcome for "O=C(Cl)c1ccc(Cl)cc1" , thank you.
class 0

Dear all, I need the recorded test outcome for "COC[C@H](C)N(C(=O)CCl)c1c(C)csc1C" , thank you.
class 0

Dear all, I need the recorded test outcome for CCCCCCCCCCCCCC[P+](CCCCCC)(CCCCCC)CCCCCC (tested in a mixture with another compound) , thank you.
class 1

Dear all, I need the recorded test outcome for "CC(c1ccc(O)cc1)c1ccc(O)cc1" , thank you.
class 0
